# EXPERIMENTAL_SYSTEM: BChE (EC 3.1.1.8, from equine serum) (Equus caballus)
# Construct: BChE (EC 3.1.1.8, from equine serum); purchased Aladdin (Shanghai, China); host or cells: equine serum
# TEST_SUMMARY: Kinetic study of BChE inhibition (Lineweaver-Burk and secondary plots)
# Type: biochemical
# RUN_CONDITIONS: BChE, competitive inhibition, secondary plot of K vs [I]; read-out: Ki (inhibition constant)
ENDPOINT_NAME: pKi
Just the number, please; pKi means minus log10 of the concentration in mol/L.

Input: Note pKi for the compound shown: CCOC(=O)C1(Cc2ccc(O)c(CC=C(C)C)c2)OC(=O)C(O)=C1c1ccc(O)cc1 (stereo not shown)
Output: 4.91

Input: Name the recorded pKi of the compound listed here: CC(C)=CCc1cc(CC2OC(=O)C(O)=C2c2ccc(O)cc2)ccc1O (stereo not shown)
Output: 4.45

Input: Quote pKi reported for COC(=O)C1(Cc2ccc(O)c(CC=C(C)C)c2)OC(=O)C(O)=C1c1ccccc1 (stereo not shown) please.
Output: 4.42

Input: Give the reported pKi for this compound. COC(=O)[C@@]1(O)OC(=O)C(Cc2ccc(O)c(CC=C(C)C)c2)=C1c1ccc(O)cc1
Output: 4.63

====

# EXPERIMENTAL_SYSTEM: BChE (EC 3.1.1.8, from equine serum) (Equus caballus, UniProt P81908)
# Construct: BChE (EC 3.1.1.8, from equine serum); purchased Aladdin (Shanghai, China); host or cells: equine serum
# Sequence (P81908 whole entry): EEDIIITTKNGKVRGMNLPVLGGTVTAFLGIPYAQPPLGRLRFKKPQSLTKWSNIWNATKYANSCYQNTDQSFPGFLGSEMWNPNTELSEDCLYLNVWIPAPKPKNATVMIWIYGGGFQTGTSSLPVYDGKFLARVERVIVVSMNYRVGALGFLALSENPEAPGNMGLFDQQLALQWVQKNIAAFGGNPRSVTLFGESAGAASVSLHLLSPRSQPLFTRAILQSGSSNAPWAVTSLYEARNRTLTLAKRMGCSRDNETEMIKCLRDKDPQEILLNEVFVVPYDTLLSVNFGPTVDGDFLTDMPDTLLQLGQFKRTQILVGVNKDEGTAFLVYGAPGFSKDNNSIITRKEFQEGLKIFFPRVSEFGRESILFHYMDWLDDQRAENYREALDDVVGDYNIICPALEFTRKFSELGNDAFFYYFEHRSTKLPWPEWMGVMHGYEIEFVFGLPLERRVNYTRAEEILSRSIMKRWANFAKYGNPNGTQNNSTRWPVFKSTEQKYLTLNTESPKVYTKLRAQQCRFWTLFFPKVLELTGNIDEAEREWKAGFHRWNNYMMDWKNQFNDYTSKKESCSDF
# TEST_SUMMARY: biochemical
# Assay type: biochemical
# RUN_CONDITIONS: tested at 100 μM, triplicate
ENDPOINT_NAME: BChE IR, % (%)
# value in %; strip the unit string

Input: Please supply the value of reported BChE IR, % for the item COC(=O)C1(O)OC(=O)C(Cc2ccc(O)c(CCC(C)(C)O)c2)=C1c1ccc(O)cc1 (stereo not shown) [Compound 2]
Output: 3.2

Input: Query BChE IR, % for COC(=O)[C@@]1(Cc2ccc(O)c(CC=C(C)C)c2)OC(=O)C(O)=C1c1ccc(O)cc1 [Compound 6, butyrolactone I]
Output: 68.0

Input: Please give the documented BChE IR, % of COC(=O)C1(Cc2ccc(O)c(CCC(C)(C)O)c2)OC(=O)C(O)=C1c1ccc(O)cc1 (stereo not shown) [Compound 12, aspernolide B]
Output: 13.4

Input: Dear colleague, please send me the reported BChE IR, % for COC(=O)[C@@]1(O)OC(=O)C(Cc2ccc3c(c2)CCC(C)(C)O3)=C1c1ccc(O)cc1 [Compound 3, flavipesolide B] when you can.
Output: 22.5

Input: Give recorded BChE IR, %. COC(=O)[C@@]1(O)OC(=O)C(Cc2ccc(O)c(CC=C(C)C)c2)=C1c1ccc(O)cc1 [Compound 4, butyrolactone VIII]
Output: 67.3

Input: Quickly give me recorded BChE IR, % for COC(=O)C1(Cc2ccc(O)c(CCC(C)(C)OC)c2)OC(=O)C(O)=C1c1ccc(O)cc1 (stereo not shown) [Compound 13, aspernolide C]
Output: 22.6

Input: Return BChE IR, % for the following compound: CC1(C)CCc2cc(CC3OC(=O)C(O)=C3c3ccc(O)cc3)ccc2O1 (stereo not shown) [Compound 10]
Output: 33.3

====

Give pIC50 for every item shown.
# EXPERIMENTAL_SYSTEM: BChE (EC 3.1.1.8, from equine serum) (Equus caballus, UniProt P81908)
# Construct: BChE (EC 3.1.1.8, from equine serum); purchased Aladdin (Shanghai, China); host or cells: equine serum
# TEST_SUMMARY: biochemical
# Type: biochemical
# RUN_CONDITIONS: sample concentration that led to 50% enzyme activity loss; mean ± SD; read-out: BChE IC50
pIC50: −log10 of the molar value.

Input: Return value of pIC50 for input CCOC(=O)C1(Cc2ccc(O)c(CC=C(C)C)c2)OC(=O)C(O)=C1c1ccc(O)cc1 (stereo not shown) [Compound 7, butyrolactone VII] , no commentary.
Output: 4.74

Input: Specify pIC50 for CC(C)=CCc1cc(/C=C2\OC(=O)C(c3ccc(O)c(CC=C(C)C)c3)=C2O)ccc1O [Aspulvinone H, aspulvinone H, reference compound] and stop.
Output: < 4.00

Input: Supply recorded pIC50 for COC(=O)C1(Cc2ccc3c(c2)CCC(C)(C)O3)OC(=O)C(O)=C1c1ccc(O)cc1 (stereo not shown) [Compound 11, aspernolide A] here.
Output: < 4.00

Input: Tell me its pIC50 given COC(=O)C1(Cc2ccc(O)cc2)OC(=O)C(O)=C1c1ccc(O)cc1 (stereo not shown) [Compound 9, butyrolactone II] as the entry.
Output: < 4.00

Input: Please give measured pIC50 of the following entry: COC(=O)C1(Cc2ccc(O)c(CC=C(C)C)c2)OC(=O)C(O)=C1c1ccccc1 (stereo not shown) [Compound 5, versicolactone B]
Output: 4.35

Input: State its pIC50 for this compound: COC(=O)C1(O)OC(=O)C(Cc2ccc(O)c(CCC(C)(C)OC)c2)=C1c1ccc(O)cc1 (stereo not shown) [Compound 1]
Output: < 4.00

Input: Complete the entry with pIC50 for COC(=O)C1(Cc2ccc3c(c2)CC(C(C)(C)O)O3)OC(=O)C(O)=C1c1ccc(O)cc1 (stereo not shown) [Compound 15, butytolactone IV]
Output: < 4.00

Input: Note pIC50 for the compound shown: COC(=O)C1(Cc2ccc(O)c(CCC(C)(C)O)c2)OC(=O)C(O)=C1c1ccc(O)cc1 (stereo not shown) [Compound 12, aspernolide B]
Output: < 4.00

Input: Return the recorded pIC50 value; entry: CC1(C)CCc2cc(CC3OC(=O)C(O)=C3c3ccc(O)cc3)ccc2O1 (stereo not shown) [Compound 10]
Output: < 4.00

Input: For COC(=O)C1(Cc2ccc(O)c(CCC(C)(C)OC)c2)OC(=O)C(O)=C1c1ccc(O)cc1 (stereo not shown) [Compound 13, aspernolide C] , write its pIC50.
Output: < 4.00

The origin of these recorded values is paper PMC9811682.
